Origin of values: patent US8133998B2

target: human α1G T-type channels (Homo sapiens, UniProt O43497); experiment: T-type calcium channel block, whole cell patch clamp in HEK cells; conditions: HEK cells stably expressing human α1G; measured at 1 μM drug; mainly non-inactivated protocol

- chemical string: "CCN(CC)C(=O)Cn1cnc2sc(C(=O)N3CCN(c4ccc(Cl)c(Cl)c4)CC3)c(C)c2c1=O"
  result unit: "nM"
  Kd: 950
- chemical string: "Cc1c(C(=O)N2CCN(c3cccc(F)c3)CC2)sc2ncn(CC(=O)NC3CCCCC3)c(=O)c12"
  result unit: "nM"
  Kd: 610
- chemical string: "Cc1c(C(=O)N2CCN(c3ccccc3F)CC2)sc2ncn(CC(=O)NC3CCCCC3)c(=O)c12"
  result unit: "nM"
  Kd: 1260
- chemical string: "CCN(CC(F)(F)F)C(=O)Cn1cnc2sc(C(=O)N3CCN(c4ccccc4F)CC3)c(C)c2c1=O"
  result unit: "nM"
  Kd: 3600

---

molecular target: human α1H T-type channels (Homo sapiens); assay: T-type calcium channel block, whole cell patch clamp in HEK cells; conditions: HEK cells stably expressing human α1H; measured at 1 μM drug; mainly non-inactivated protocol
Sequence (O95180 whole entry): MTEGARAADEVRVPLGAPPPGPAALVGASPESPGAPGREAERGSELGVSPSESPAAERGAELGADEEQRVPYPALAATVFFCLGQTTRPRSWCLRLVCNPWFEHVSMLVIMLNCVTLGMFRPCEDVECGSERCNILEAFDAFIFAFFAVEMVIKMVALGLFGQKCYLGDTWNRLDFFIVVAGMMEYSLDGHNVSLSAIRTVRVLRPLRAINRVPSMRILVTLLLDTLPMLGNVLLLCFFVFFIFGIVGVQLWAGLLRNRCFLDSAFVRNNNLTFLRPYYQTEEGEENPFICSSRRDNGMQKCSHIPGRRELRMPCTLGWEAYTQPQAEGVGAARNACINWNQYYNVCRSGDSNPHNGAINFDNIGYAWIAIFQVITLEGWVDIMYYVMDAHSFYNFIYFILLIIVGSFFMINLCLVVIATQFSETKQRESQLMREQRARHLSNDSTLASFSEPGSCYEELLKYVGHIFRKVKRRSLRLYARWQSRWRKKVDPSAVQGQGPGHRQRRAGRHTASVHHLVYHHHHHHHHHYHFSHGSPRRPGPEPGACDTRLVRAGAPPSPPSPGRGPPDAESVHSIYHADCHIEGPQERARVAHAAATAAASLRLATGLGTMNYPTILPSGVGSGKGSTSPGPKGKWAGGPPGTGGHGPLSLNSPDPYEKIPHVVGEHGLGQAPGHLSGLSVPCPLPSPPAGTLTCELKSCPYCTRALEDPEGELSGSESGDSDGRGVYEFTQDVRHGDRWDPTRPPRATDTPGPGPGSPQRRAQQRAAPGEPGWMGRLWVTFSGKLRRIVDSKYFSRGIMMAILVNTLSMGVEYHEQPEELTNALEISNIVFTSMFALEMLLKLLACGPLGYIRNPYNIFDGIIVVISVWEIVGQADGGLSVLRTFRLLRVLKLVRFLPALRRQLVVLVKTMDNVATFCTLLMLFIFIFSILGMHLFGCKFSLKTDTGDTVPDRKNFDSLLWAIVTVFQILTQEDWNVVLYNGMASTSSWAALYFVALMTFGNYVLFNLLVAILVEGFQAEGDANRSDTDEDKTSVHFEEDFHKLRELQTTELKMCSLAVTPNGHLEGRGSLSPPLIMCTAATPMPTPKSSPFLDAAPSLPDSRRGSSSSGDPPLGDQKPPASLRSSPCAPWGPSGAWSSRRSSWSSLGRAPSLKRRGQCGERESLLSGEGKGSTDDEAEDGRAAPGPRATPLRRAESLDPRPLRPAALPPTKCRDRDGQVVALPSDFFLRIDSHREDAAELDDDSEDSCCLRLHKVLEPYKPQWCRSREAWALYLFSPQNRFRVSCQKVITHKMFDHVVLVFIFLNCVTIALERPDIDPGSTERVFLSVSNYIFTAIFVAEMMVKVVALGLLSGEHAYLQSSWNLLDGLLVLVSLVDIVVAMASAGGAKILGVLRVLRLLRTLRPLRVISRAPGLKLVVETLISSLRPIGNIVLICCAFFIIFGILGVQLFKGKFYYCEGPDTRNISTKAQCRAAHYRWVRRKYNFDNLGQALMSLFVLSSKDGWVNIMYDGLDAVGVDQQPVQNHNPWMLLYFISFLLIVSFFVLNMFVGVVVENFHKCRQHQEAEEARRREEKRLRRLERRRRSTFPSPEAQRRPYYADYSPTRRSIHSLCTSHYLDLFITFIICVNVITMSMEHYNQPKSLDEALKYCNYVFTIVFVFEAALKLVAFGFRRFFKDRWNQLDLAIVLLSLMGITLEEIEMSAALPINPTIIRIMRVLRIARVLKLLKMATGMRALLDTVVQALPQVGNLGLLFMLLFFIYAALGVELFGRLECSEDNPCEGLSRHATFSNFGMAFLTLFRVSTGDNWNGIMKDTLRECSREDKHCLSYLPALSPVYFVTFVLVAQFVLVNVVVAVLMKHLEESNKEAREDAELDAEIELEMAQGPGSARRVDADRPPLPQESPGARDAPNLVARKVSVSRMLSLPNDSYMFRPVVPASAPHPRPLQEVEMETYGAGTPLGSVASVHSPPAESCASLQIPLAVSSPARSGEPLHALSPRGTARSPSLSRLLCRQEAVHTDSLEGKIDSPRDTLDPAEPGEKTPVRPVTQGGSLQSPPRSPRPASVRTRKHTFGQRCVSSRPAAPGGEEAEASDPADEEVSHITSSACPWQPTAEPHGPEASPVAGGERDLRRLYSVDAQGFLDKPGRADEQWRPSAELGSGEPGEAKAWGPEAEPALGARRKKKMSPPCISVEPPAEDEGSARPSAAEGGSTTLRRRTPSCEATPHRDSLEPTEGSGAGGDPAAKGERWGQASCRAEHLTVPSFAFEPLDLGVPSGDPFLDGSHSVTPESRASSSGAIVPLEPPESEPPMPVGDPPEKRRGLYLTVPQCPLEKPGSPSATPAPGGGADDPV
hey, just use rule met if measured Kd is less than 500 nM, otherwise rule not met

- chemical string: "Cc1c(C(=O)N2CCN(c3ccc(F)cc3)CC2)sc2ncn(CC(=O)N3CCC(F)(F)C3)c(=O)c12"
  cat: "rule not met"
- chemical string: "CCN(CC(F)(F)F)C(=O)Cn1cnc2sc(C(=O)N3CCN(c4ccc(C(F)(F)F)cc4)CC3)c(C)c2c1=O"
  cat: "rule met"
- chemical string: "Cc1c(C(=O)N2CCN(c3ccccc3)CC2)sc2ncn(CC(=O)Nc3cc(F)cc(F)c3)c(=O)c12"
  cat: "rule met"
- chemical string: "Cc1c(C(=O)N2CCN(c3ccccc3)CC2)sc2ncn(CC(=O)Nc3ccccc3)c(=O)c12"
  cat: "rule met"
- chemical string: "Cc1c(C(=O)N2CCN(c3ccc(F)c(Cl)c3)CC2)sc2ncn(CC(=O)N3CC[C@H](F)C3)c(=O)c12"
  cat: "rule not met"
- chemical string: "CCN(CC)C(=O)Cn1cnc2sc(C(=O)N3CCN(c4cccc(F)c4)CC3)c(C)c2c1=O"
  cat: "rule not met"

---

Item-by-item account of pKd
biological target: human α1G T-type channels (Homo sapiens); construct: expressed in transfected cells; host or cells: HEK 293; assay: T-type calcium channel block, whole cell patch clamp in HEK cells; type: cell-based; settings: HEK cells stably expressing human α1G; measured at 1 μM drug; mainly non-inactivated protocol
pKd: −log10 of the molar value.

- molecule: "Cc1c(C(=O)N2CCN(c3ccccc3)CC2)sc2ncn(CC(=O)NC3CCCCC3)c(=O)c12 [Compound 19]"
  pKd: 5.44
- molecule: "CNC(=O)c1sc2ncn(CC(=O)Nc3cc(C(F)(F)F)cc(C(F)(F)F)c3)c(=O)c2c1C [Compound 66]"
  pKd: 6.46
- molecule: "Cc1c(C(=O)N2CCN(c3ccccc3F)CC2)sc2ncn(CC(=O)Nc3ccc(C(F)(F)F)cc3)c(=O)c12 [Compound 142]"
  pKd: 5.94
- molecule: "Cc1c(C(=O)N2CCN(c3ccccc3)CC2)sc2ncn(CC(=O)Nc3cc(F)cc(F)c3)c(=O)c12 [Compound 55]"
  pKd: 6.62
- molecule: "Cc1c(C(=O)N2CCN(c3ccccc3F)CC2)sc2ncn(CC(=O)N3CCCCC3)c(=O)c12 [Compound 81]"
  pKd: 5.77
- molecule: "CCN(CC)C(=O)Cn1cnc2sc(C(=O)N3CCN(c4ccccc4Cl)CC3)c(C)c2c1=O [Compound 4]"
  pKd: 5.39
- molecule: "Cc1c(C(=O)N2CCN(c3cc(C(F)(F)F)cc(C(F)(F)F)c3)CC2)sc2ncn(CC(=O)Nc3ccccc3)c(=O)c12 [Compound 53]"
  pKd: 6.72
- molecule: "Cc1c(C(=O)N2CCN(c3ccccc3F)CC2)sc2ncn(CC(=O)Nc3cc(C(F)(F)F)cc(C(F)(F)F)c3)c(=O)c12 [Compound 64]"
  pKd: 6.70
- molecule: "CCN(CC)C(=O)Cn1cnc2sc(C(=O)N3CCN(c4ccc(Cl)cc4)CC3)c(C)c2c1=O [Compound 5]"
  pKd: 5.91
- molecule: "Cc1c(C(=O)N2CCN(c3ccc(Cl)c(Cl)c3)CC2)sc2ncn(CC(=O)N3CCCC3)c(=O)c12 [Compound 135]"
  pKd: 5.00
- molecule: "Cc1c(C(=O)N2CCN(c3cccc(C(F)(F)F)c3)CC2)sc2ncn(CC(=O)NC(C)(C)C)c(=O)c12 [Compound 12]"
  pKd: 5.71
- molecule: "Cc1c(C(=O)N2CCCC2)sc2ncn(CC(=O)Nc3cc(C(F)(F)F)cc(C(F)(F)F)c3)c(=O)c12 [Compound 70]"
  pKd: 5.27
- molecule: "Cc1c(C(N)=O)sc2ncn(CC(=O)Nc3cc(C(F)(F)F)cc(C(F)(F)F)c3)c(=O)c12 [Compound 67]"
  pKd: 5.55
- molecule: "Cc1c(C(=O)N2CCN(c3cccc(Cl)c3)CC2)sc2ncn(CC(=O)Nc3ccc(F)cc3F)c(=O)c12 [Compound 140]"
  pKd: 6.44
- molecule: "Cc1c(C(=O)N2CCN(c3ccc(F)cc3)CC2)sc2ncn(CC(=O)NC3CCCCC3)c(=O)c12 [Compound 22]"
  pKd: 5.87

---

molecular target: human α1G T-type channels (Homo sapiens, UniProt O43497); test: T-type calcium channel block, whole cell patch clamp in HEK cells; conditions: HEK cells stably expressing human α1G; measured at 1 μM drug; mainly non-inactivated protocol
property label: Kd (nM)

- compound: "Cc1c(C(=O)NC(C)(C)C)sc2ncn(CC(=O)Nc3cc(C(F)(F)F)cc(C(F)(F)F)c3)c(=O)c12 [Compound 68]"
  property label: "Kd"
  reading: 400
- compound: "Cc1c(C(=O)N2CCN(c3ccccc3)CC2)sc2ncn(CC(=O)Nc3ccccc3)c(=O)c12 [Compound 52]"
  property label: "Kd"
  reading: 1010
- compound: "Cc1c(C(=O)N2CCN(c3ccc(Cl)cc3)CC2)sc2ncn(CCN3CCCC3=O)c(=O)c12 [Compound 94]"
  property label: "Kd"
  reading: 20300
- compound: "Cc1c(C(=O)N2CCN(c3ccc(Cl)cc3)CC2)sc2ncn(CC(=O)NC3CCCC3)c(=O)c12 [Compound 42]"
  property label: "Kd"
  reading: 570

---

target: human α1G T-type channels (Homo sapiens, UniProt O43497); test: T-type calcium channel block, whole cell patch clamp in HEK cells; conditions: HEK cells stably expressing human α1G; measured at 1 μM drug; mainly non-inactivated protocol
pKd: −log10 of the molar value.
property label: pKd

- molecule: "Cc1c(C(=O)N2CCN(c3ccccc3F)CC2)sc2ncn(CC(=O)NC3CCCC3)c(=O)c12 [Compound 36]"
  assay system: "human α1G T-type channels (Homo sapiens, UniProt O43497)"
  reading: 5.76
- molecule: "Cc1c(C(=O)N2CCC(C(F)(F)F)CC2)sc2ncn(CC(=O)Nc3cccc(C(F)(F)F)c3)c(=O)c12 [Compound 63]"
  assay system: "human α1G T-type channels (Homo sapiens, UniProt O43497)"
  reading: 5.74
- molecule: "Cc1c(C(=O)N2CCN(c3ccccc3F)CC2)sc2ncn(CCN3CCCC3=O)c(=O)c12 [Compound 95]"
  assay system: "human α1G T-type channels (Homo sapiens, UniProt O43497)"
  reading: 5.58
- molecule: "Cc1c(C(=O)N2CCN(c3cccc(Cl)c3)CC2)sc2ncn(CC(=O)NC3CCCCC3)c(=O)c12 [Compound 24]"
  assay system: "human α1G T-type channels (Homo sapiens, UniProt O43497)"
  reading: 6.52

---

biological target: human α1I T-type channels (Homo sapiens, UniProt Q9P0X4); experiment: T-type calcium channel block, whole cell patch clamp in HEK cells; details: HEK cells stably expressing human α1I; measured at 1 μM drug; mainly non-inactivated protocol
Sequence (Q9P0X4 whole entry): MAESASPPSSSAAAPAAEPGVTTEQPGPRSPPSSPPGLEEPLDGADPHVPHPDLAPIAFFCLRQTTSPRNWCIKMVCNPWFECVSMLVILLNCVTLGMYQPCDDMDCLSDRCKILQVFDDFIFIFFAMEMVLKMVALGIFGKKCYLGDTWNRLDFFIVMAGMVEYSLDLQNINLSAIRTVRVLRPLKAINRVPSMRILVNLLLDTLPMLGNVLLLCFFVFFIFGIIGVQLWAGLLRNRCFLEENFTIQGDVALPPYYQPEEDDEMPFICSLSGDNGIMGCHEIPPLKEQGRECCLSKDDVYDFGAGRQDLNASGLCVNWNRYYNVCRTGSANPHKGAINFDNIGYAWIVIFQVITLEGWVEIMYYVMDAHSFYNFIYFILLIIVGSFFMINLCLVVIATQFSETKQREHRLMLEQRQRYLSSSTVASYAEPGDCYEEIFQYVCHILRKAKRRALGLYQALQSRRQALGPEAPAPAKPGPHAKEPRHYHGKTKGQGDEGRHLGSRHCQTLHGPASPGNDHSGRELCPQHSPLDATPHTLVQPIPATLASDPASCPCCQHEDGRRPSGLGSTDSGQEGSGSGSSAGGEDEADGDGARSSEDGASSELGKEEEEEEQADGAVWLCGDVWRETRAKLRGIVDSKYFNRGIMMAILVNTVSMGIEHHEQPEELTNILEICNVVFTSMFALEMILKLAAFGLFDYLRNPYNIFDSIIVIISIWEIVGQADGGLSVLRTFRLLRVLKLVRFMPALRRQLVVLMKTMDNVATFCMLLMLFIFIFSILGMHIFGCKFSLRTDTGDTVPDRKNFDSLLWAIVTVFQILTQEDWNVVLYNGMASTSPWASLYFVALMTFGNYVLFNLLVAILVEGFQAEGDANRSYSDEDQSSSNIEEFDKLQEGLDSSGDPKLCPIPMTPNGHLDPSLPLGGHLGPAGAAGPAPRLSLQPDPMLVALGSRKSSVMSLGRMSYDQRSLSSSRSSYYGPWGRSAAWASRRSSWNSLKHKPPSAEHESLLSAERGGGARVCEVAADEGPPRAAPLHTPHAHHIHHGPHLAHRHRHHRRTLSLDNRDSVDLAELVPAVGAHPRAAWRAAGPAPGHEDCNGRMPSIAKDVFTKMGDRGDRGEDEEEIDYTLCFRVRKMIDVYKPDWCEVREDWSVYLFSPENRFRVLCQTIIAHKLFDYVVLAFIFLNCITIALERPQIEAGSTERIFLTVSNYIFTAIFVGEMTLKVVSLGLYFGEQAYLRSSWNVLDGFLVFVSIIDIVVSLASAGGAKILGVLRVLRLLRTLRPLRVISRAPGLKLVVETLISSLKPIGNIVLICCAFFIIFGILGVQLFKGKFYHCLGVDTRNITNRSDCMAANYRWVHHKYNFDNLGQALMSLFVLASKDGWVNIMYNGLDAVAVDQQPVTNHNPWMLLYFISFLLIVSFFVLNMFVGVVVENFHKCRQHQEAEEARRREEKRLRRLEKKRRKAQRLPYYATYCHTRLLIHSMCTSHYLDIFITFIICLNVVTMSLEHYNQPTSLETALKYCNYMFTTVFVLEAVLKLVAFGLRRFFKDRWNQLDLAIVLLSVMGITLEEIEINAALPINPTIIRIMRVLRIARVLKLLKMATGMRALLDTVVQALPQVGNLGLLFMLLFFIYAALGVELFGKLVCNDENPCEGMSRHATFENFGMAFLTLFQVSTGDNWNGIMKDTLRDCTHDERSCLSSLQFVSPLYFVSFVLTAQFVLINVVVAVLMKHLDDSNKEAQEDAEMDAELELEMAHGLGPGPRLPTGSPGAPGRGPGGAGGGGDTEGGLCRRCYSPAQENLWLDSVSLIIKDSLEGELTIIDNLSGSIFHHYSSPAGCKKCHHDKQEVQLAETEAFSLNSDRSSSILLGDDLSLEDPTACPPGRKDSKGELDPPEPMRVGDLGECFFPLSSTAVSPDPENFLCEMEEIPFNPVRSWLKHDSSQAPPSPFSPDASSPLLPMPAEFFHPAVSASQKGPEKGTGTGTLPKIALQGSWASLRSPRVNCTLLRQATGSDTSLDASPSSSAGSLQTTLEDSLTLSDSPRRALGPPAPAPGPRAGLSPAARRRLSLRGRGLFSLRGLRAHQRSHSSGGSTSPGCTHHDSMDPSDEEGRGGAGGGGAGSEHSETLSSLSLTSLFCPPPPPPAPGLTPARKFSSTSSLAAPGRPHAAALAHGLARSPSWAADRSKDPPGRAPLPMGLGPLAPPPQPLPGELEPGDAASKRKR
property label: Kd (µM)

- compound: "Cc1c(C(=O)N2CCN(c3ccccc3)CC2)sc2ncn(CC(=O)Nc3cc(F)cc(F)c3)c(=O)c12"
  assay system: "human α1I T-type channels (Homo sapiens, UniProt Q9P0X4)"
  property label: "Kd"
  result unit: "µM"
  modifier sign: ">"
  reading: 0.95
- compound: "Cc1c(C(=O)N2CCN(c3ccc(Cl)cc3)CC2)sc2ncn(CC(=O)NC3CCCCC3)c(=O)c12"
  assay system: "human α1I T-type channels (Homo sapiens, UniProt Q9P0X4)"
  property label: "Kd"
  result unit: "µM"
  modifier sign: "="
  reading: 2.1
- compound: "Cc1c(C(=O)N2CCN(c3ccccc3)CC2)sc2ncn(CC(=O)NC3CCCCC3)c(=O)c12"
  assay system: "human α1I T-type channels (Homo sapiens, UniProt Q9P0X4)"
  property label: "Kd"
  result unit: "µM"
  modifier sign: "="
  reading: 2.38
- compound: "Cc1c(C(=O)N2CCN(c3cccc(F)c3)CC2)sc2ncn(CC(=O)NC3CCCCC3)c(=O)c12"
  assay system: "human α1I T-type channels (Homo sapiens, UniProt Q9P0X4)"
  property label: "Kd"
  result unit: "µM"
  modifier sign: "="
  reading: 5.2
- compound: "Cc1c(C(=O)N2CCN(c3cccc(Cl)c3)CC2)sc2ncn(CC(=O)N3CCCC3)c(=O)c12"
  assay system: "human α1I T-type channels (Homo sapiens, UniProt Q9P0X4)"
  property label: "Kd"
  result unit: "µM"
  modifier sign: "="
  reading: 8.8
- compound: "Cc1c(C(=O)N2CCCCC2)sc2ncn(CC(=O)Nc3cc(C(F)(F)F)cc(C(F)(F)F)c3)c(=O)c12"
  assay system: "human α1I T-type channels (Homo sapiens, UniProt Q9P0X4)"
  property label: "Kd"
  result unit: "µM"
  modifier sign: "="
  reading: 0.71
- compound: "CNC(=O)c1sc2ncn(CC(=O)Nc3cc(C(F)(F)F)cc(C(F)(F)F)c3)c(=O)c2c1C"
  assay system: "human α1I T-type channels (Homo sapiens, UniProt Q9P0X4)"
  property label: "Kd"
  result unit: "µM"
  modifier sign: "="
  reading: 1.04
- compound: "CCN(CC)C(=O)Cn1cnc2sc(C(=O)N3CCN(c4ccc(Cl)c(Cl)c4)CC3)c(C)c2c1=O"
  assay system: "human α1I T-type channels (Homo sapiens, UniProt Q9P0X4)"
  property label: "Kd"
  result unit: "µM"
  modifier sign: "="
  reading: 9.67
- compound: "Cc1c(C(=O)N2CCN(c3cc(C(F)(F)F)cc(C(F)(F)F)c3)CC2)sc2ncn(CC(=O)Nc3ccccc3)c(=O)c12"
  assay system: "human α1I T-type channels (Homo sapiens, UniProt Q9P0X4)"
  property label: "Kd"
  result unit: "µM"
  modifier sign: "="
  reading: 0.58
- compound: "Cc1c(C(=O)N2CCN(c3cccc(Cl)c3)CC2)sc2ncn(CC(=O)Nc3ccc(F)cc3F)c(=O)c12"
  assay system: "human α1I T-type channels (Homo sapiens, UniProt Q9P0X4)"
  property label: "Kd"
  result unit: "µM"
  modifier sign: "="
  reading: 4.99
- compound: "Cc1c(C(=O)N2CCN(c3cccc(Cl)c3)CC2)sc2ncn(CC(=O)NC3CCCCC3)c(=O)c12"
  assay system: "human α1I T-type channels (Homo sapiens, UniProt Q9P0X4)"
  property label: "Kd"
  result unit: "µM"
  modifier sign: "="
  reading: 1.52
- compound: "CCN(CC)C(=O)Cn1cnc2sc(C(=O)N3CCN(c4ccc(C(F)(F)F)cc4)CC3)c(C)c2c1=O"
  assay system: "human α1I T-type channels (Homo sapiens, UniProt Q9P0X4)"
  property label: "Kd"
  result unit: "µM"
  modifier sign: ">"
  reading: 31.3
- compound: "Cc1c(C(=O)N2CCN(c3ccccc3)CC2)sc2ncn(CC(=O)Nc3ccccc3)c(=O)c12"
  assay system: "human α1I T-type channels (Homo sapiens, UniProt Q9P0X4)"
  property label: "Kd"
  result unit: "µM"
  modifier sign: "="
  reading: 8.79
- compound: "Cc1c(C(=O)N2CCN(c3ccccc3)CC2)sc2ncn(C(C)C(=O)NC3CCCCC3)c(=O)c12 (centres unmarked)"
  assay system: "human α1I T-type channels (Homo sapiens, UniProt Q9P0X4)"
  property label: "Kd"
  result unit: "µM"
  modifier sign: "="
  reading: 5.13
